From: the Kinase Knowledgebase extract (Sharma et al. 2016)

System: PIK3CD (Human) (UniProt O00329) | Read-out: IC50
Sequence (O00329 whole entry, looked up): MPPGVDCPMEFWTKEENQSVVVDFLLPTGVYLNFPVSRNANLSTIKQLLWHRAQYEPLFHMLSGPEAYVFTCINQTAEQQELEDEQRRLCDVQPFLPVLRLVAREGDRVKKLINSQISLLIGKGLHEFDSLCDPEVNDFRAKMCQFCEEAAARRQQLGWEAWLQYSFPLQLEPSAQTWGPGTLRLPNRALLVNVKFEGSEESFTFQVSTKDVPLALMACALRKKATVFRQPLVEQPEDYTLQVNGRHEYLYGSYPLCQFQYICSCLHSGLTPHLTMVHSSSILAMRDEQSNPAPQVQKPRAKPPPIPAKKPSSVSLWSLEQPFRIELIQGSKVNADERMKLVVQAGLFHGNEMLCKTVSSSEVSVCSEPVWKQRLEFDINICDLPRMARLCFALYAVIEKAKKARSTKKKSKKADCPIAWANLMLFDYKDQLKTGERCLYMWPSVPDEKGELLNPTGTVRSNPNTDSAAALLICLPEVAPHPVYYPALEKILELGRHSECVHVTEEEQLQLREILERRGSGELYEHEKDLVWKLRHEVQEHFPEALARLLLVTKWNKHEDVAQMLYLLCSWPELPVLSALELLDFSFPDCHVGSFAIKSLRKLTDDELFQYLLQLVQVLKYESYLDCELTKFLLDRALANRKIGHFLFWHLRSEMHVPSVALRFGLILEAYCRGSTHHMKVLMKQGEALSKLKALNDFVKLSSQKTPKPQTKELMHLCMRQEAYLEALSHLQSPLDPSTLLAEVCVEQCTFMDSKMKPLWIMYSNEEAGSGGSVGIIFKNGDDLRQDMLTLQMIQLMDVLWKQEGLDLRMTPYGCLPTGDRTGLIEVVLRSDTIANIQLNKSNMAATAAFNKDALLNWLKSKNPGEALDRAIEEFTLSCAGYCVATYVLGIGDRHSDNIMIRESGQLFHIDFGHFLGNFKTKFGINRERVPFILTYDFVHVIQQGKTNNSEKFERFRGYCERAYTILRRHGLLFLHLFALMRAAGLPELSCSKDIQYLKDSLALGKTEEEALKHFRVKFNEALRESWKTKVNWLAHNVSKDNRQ
Give the quantity in nM, number only.

State the recorded IC50 for this entry: O=c1c2c(Br)ccn2nc([C@@H]2CCN2c2ncnc3[nH]cnc23)n1-c1ccccc1
156

Next up: COc1cccc(-n2c([C@@H]3CCCN3c3ncnc4[nH]cc(C#N)c34)nn3cccc3c2=O)c1
5

Next up: Nc1nc(N2CCC[C@H]2c2nn3cccc3c(=O)n2-c2ccccc2)c2nc[nH]c2n1
6

====

target: PIK3CB (Human) (UniProt P42338)
Sequence (P42338 whole entry, looked up): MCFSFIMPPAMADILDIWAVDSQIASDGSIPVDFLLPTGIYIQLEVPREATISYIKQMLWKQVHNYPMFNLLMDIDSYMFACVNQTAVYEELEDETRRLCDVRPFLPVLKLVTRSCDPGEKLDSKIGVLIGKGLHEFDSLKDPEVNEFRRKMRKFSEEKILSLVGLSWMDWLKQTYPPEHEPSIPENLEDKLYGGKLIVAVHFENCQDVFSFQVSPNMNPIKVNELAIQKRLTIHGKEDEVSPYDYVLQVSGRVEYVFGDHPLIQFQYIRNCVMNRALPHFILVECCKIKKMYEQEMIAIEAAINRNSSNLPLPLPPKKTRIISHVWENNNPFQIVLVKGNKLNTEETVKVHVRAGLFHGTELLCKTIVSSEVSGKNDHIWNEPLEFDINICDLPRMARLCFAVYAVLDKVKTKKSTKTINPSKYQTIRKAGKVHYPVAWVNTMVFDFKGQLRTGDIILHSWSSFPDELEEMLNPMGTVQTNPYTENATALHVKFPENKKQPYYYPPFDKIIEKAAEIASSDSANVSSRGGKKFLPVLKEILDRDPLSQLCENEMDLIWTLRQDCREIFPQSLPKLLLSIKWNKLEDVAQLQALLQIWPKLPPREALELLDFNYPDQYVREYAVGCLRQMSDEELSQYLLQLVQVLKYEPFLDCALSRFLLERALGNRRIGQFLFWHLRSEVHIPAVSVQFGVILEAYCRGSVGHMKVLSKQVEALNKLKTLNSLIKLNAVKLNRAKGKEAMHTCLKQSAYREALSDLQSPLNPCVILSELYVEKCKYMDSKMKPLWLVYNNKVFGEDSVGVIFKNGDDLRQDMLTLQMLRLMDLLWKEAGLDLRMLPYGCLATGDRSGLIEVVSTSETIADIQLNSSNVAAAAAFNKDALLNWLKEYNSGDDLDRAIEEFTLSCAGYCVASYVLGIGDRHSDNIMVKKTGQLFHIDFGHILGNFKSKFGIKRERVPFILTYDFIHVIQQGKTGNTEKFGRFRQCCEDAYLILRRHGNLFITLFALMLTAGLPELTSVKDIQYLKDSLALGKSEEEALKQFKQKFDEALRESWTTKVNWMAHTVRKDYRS
endpoint_label: IC50 (nM)
Give the quantity in nM, number only.

State the recorded IC50 for this entry: C[C@H]1CN(c2nc(N)nc3c2C(=O)CCN3)[C@@H]1c1nn2ccc(Cl)c2c(=O)n1-c1ccccn1
1580

====

target: PIK3CD (Human)
endpoint_label: IC50 (nM)
Give the quantity in nM, number only.

State the recorded IC50 for this entry: C[S@+]([O-])c1c[nH]c2ncnc(N3C[C@@H](C#N)C[C@H]3c3nn4ccc(Cl)c4c(=O)n3-c3ccccc3)c12
21

Next up: N#Cc1c(N)ncnc1OCc1cc2ncc(Cl)n2c(=O)n1-c1ccccc1
136

Next up: N#Cc1n[nH]c2ncnc(N3CCC[C@H]3c3nn4cccc4c(=O)n3-c3ccccc3)c12
26

Next up: Nc1ncc([N+](=O)O)c(N2CC[C@H]2c2nn3ccc(Cl)c3c(=O)n2-c2ccccc2)n1
40

Next up: Nc1ncc(C(=O)C(F)F)c(N2CC[C@H]2c2nn3ccc(Cl)c3c(=O)n2-c2ccccc2)n1
38
